Entries and their pIC50
system: 292921-168-R tumor spheroid viability; assay: Anticancer human tumor 292921-168-R patient-derived pancreatic carcinoma cell line growth inhibition; conditions: curve of first compound; second compound 0.3 µM; spheroids with HUVEC and MSC
pIC50: −log10 of the molar value.

See these solved cases before continuing.
O=C(c1cc(Cc2n[nH]c(=O)c3ccccc23)ccc1F)N1CCN(C(=O)C2CC2)CC1 + CC[C@@]1(O)C(=O)OCc2c1cc1n(c2=O)Cc2cc3c(CN(C)C)c(O)ccc3nc2-1 = > 7.02
[2H]c1nc(C)nc([2H])c1-c1cc(NC[C@@H](C)c2cccc3c(C(=O)NC)ccnc23)ncn1 + CC[C@@]1(O)C(=O)OCc2c1cc1n(c2=O)Cc2cc3c(CN(C)C)c(O)ccc3nc2-1 = > 7.50
CC(C)n1c(=O)n(C)c2cnc3cc(F)c(-c4ccc(OCCCN5CCCCC5)nc4)cc3c21 + CC[C@@]1(O)C(=O)OCc2c1cc1n(c2=O)Cc2cc3c(CN(C)C)c(O)ccc3nc2-1 = > 7.50

Problem: Request the reported pIC50 associated with COc1cc(C)[nH]c(=O)c1CN1CCc2c(Cl)cc(C(OC)C3COC3)c(Cl)c2C1=O (stereo not given) + CC[C@@]1(O)C(=O)OCc2c1cc1n(c2=O)Cc2cc3c(CN(C)C)c(O)ccc3nc2-1
Result: > 7.50

Problem: # get_value(readout='pIC50', item= CC1COCCN1c1cc(-c2ccnn2C)c2ccnc(-c3ccn[nH]3)c2n1 (stereo not given) + CC[C@@]1(O)C(=O)OCc2c1cc1n(c2=O)Cc2cc3c(CN(C)C)c(O)ccc3nc2-1 )
Result: > 7.50

---

tested on: 292921-168-R tumor spheroid viability; assay: Anticancer human tumor 292921-168-R cell line growth inhibition; conditions: second compound 0.0949 µM; first compound 3 µM; stronger effect = lower value; spheroids with HUVEC and MSC;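 note: spheroids exposed to compounds for 7 days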
quantityName: viability, T/C

O=C(c1cc(Cc2n[nH]c(=O)c3ccccc23)ccc1F)N1CCN(C(=O)C2CC2)CC1 + CC[C@@]1(O)C(=O)OCc2c1cc1n(c2=O)Cc2cc3c(CN(C)C)c(O)ccc3nc2-1 = 10%
CNCc1ccc(-c2cc(-c3nc(-c4ccc(S(=O)(=O)C(C)C)cc4)cnc3N)on2)cc1 + CC[C@@]1(O)C(=O)OCc2c1cc1n(c2=O)Cc2cc3c(CN(C)C)c(O)ccc3nc2-1 = 2.13%
Cc1sc2c(c1C)C(c1ccc(Cl)cc1)=NC(CC(=O)Nc1ccc(O)cc1)c1nnc(C)n1-2 (centres undefined) + CC[C@@]1(O)C(=O)OCc2c1cc1n(c2=O)Cc2cc3c(CN(C)C)c(O)ccc3nc2-1 = 1.06%

// moving on: another record for viability, T/C
Problem: Quick one: viability, T/C for Cn1ncnc1[C@H]1c2n[nH]c(=O)c3cc(F)cc(c23)N[C@@H]1c1ccc(F)cc1 + CC[C@@]1(O)C(=O)OCc2c1cc1n(c2=O)Cc2cc3c(CN(C)C)c(O)ccc3nc2-1 ?
Result: 5.32%

---

system: 292921-168-R tumor spheroid viability; assay: Anticancer human tumor 292921-168-R cell line growth inhibition; settings: second compound 30 pM; first compound 3.16 µM; stronger effect = lower value; spheroids with HUVEC and MSC;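 note: spheroids exposed to compounds for 7 days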
Below, each entry is listed alongside its reported viability, T/C.

Illustrative cases are given below, each with its answer.
COc1cc(C)[nH]c(=O)c1CN1CCc2c(Cl)cc(C(OC)C3COC3)c(Cl)c2C1=O (stereo unspecified) + COc1cc2c(cc1O)CCNC21CSC2c3c(OC(C)=O)c(C)c4c(c3C(COC1=O)N1C(O)C3Cc5cc(C)c(OC)c(O)c5C(C21)N3C)OCO4 = 110%
[2H]c1nc(C)nc([2H])c1-c1cc(NC[C@@H](C)c2cccc3c(C(=O)NC)ccnc23)ncn1 + COc1cc2c(cc1O)CCNC21CSC2c3c(OC(C)=O)c(C)c4c(c3C(COC1=O)N1C(O)C3Cc5cc(C)c(OC)c(O)c5C(C21)N3C)OCO4 = 105%
Cc1cc(C)c(CNC(=O)c2cc(-c3ccc(CN4CCOCC4)cc3)cc3c2cnn3C2CCCC2)c(=O)[nH]1 + COc1cc2c(cc1O)CCNC21CSC2c3c(OC(C)=O)c(C)c4c(c3C(COC1=O)N1C(O)C3Cc5cc(C)c(OC)c(O)c5C(C21)N3C)OCO4 = 101%
CC(C)n1c(=O)n(C)c2cnc3cc(F)c(-c4ccc(OCCCN5CCCCC5)nc4)cc3c21 + COc1cc2c(cc1O)CCNC21CSC2c3c(OC(C)=O)c(C)c4c(c3C(COC1=O)N1C(O)C3Cc5cc(C)c(OC)c(O)c5C(C21)N3C)OCO4 = 49.6%
CC1COCCN1c1cc(-c2ccnn2C)c2ccnc(-c3ccn[nH]3)c2n1 (stereo unspecified) + COc1cc2c(cc1O)CCNC21CSC2c3c(OC(C)=O)c(C)c4c(c3C(COC1=O)N1C(O)C3Cc5cc(C)c(OC)c(O)c5C(C21)N3C)OCO4 = 14.3%

We next turn to a different compound, shown below.
Problem: Return reported viability, T/C; argument: COc1ccc([C@@H](O)c2cc(-c3ncnc4cc(N5CCOCC5)ccc34)c(F)cc2Cl)nn1 + COc1cc2c(cc1O)CCNC21CSC2c3c(OC(C)=O)c(C)c4c(c3C(COC1=O)N1C(O)C3Cc5cc(C)c(OC)c(O)c5C(C21)N3C)OCO4
Result: 31.1%
